- experimental target: Polymerase acidic protein (Influenza A virus (strain A/X-31 H3N2), UniProt Q9IQ47)
- test protocol: Inhibition of recombinant Influenza virus A/X-31 N-terminal RdRp PA subunit (1 to 217) expressed in Escherichia coli using single-stranded circular DNA plasmid M13mp18 as substrate after 2 hrs by agarose gel electrophoresis
pIC50: −log10 of the molar value.
Give measured pIC50 for each item. Keep answers brief.

Param request: pIC50 | system Polymerase acidic protein (Influenza A virus (strain A/X-31 H3N2), UniProt Q9IQ47) | item O=C(O)CCc1nnc(SCc2ccc(Cl)cc2)nc1O
< 3.30

Param request: pIC50 | system Polymerase acidic protein (Influenza A virus (strain A/X-31 H3N2), UniProt Q9IQ47) | item CCOC(=O)c1c(O)c2cc(OC)ccc2n(C)c1=O
< 3.30

Param request: pIC50 | system Polymerase acidic protein (Influenza A virus (strain A/X-31 H3N2), UniProt Q9IQ47) | item COc1cc2nc(N3CCOCC3)nc(N)c2cc1OC
< 3.30

Param request: pIC50 | system Polymerase acidic protein (Influenza A virus (strain A/X-31 H3N2), UniProt Q9IQ47) | item O=C(O)CC1C(=O)NCCN1CCCc1ccccc1 (stereo not given)
< 3.30

Param request: pIC50 | system Polymerase acidic protein (Influenza A virus (strain A/X-31 H3N2), UniProt Q9IQ47) | item O=C(NCCc1ccc(O)c(O)c1)c1cc2cc(O)c(O)cc2[nH]1
6.03

---

- test protocol: Cytotoxicity against MDCK cells assessed as cell viability measured at 24 hrs by MTS assay
- Type: cell-based, Canis lupus familiaris
- measurement conditions: dog
recorded endpoint: CC50 at 24 h

Determine from records and report CC50 at 24 h for NC(=O)c1ncn([C@@H]2O[C@H](CO)[C@@H](O)[C@H]2O)n1 [RIBAVIRIN]
> 200 µM

Determine from records and report CC50 at 24 h for O=C(NCCCNC(=O)c1cc2cc(O)c(O)cc2[nH]1)c1cc2ccccc2[nH]1
> 200 µM

Determine from records and report CC50 at 24 h for O=C(O)/C(O)=C/C(=O)C1(Cc2ccc(Cl)cc2)CCN(Cc2ccccc2)CC1
181 µM

Determine from records and report CC50 at 24 h for O=C(NCCCCNC(=O)c1cc2cc(O)c(O)cc2[nH]1)c1cc2cc(O)c(O)cc2[nH]1
> 200 µM

Determine from records and report CC50 at 24 h for O=C(NCCc1ccc(O)c(O)c1)c1cc2cc(O)c(O)cc2[nH]1
≥ 50 µM

---

Give measured pEC50 for each item. Keep answers brief.
- Test system: Influenza A virus
- test protocol: Antiviral activity against Influenza A virus (A/PR/8/1934(H1N1)) infected in HEK293T cells assessed as reduction in viral RNP reconstitution measured at 24 hrs by luciferase reporter gene assay
- Type: functional, organism-based
- measurement conditions: A/Puerto Rico/8/1934(H1N1), HEK-293T
// pEC50: -log10(molar conc.)

Determine from records and report pEC50 for O=C(NCCCNC(=O)c1cc2cc(O)c(O)cc2[nH]1)c1cc2ccccc2[nH]1
4.19

Determine from records and report pEC50 for O=C(NCCCCNC(=O)c1cc2cc(O)c(O)cc2[nH]1)c1cc2cc(O)c(O)cc2[nH]1
4.62

Determine from records and report pEC50 for O=C(NCCc1ccc(O)c(O)c1)c1cc2cc(O)c(O)cc2[nH]1
4.80

Determine from records and report pEC50 for O=C(O)/C(O)=C/C(=O)C1(Cc2ccc(Cl)cc2)CCN(Cc2ccccc2)CC1
5.47

Determine from records and report pEC50 for NC(=O)c1ncn([C@@H]2O[C@H](CO)[C@@H](O)[C@H]2O)n1 [RIBAVIRIN]
5.08

---

- experimental target: Polymerase acidic protein (Influenza A virus (strain A/X-31 H3N2), UniProt Q9IQ47)
- test protocol: Inhibition of recombinant Influenza virus A/X-31 N-terminal RdRp PA subunit (1 to 217) expressed in Escherichia coli using single-stranded circular DNA plasmid M13mp18 as substrate after 2 hrs by agarose gel electrophoresis
pIC50: −log10 of the molar value.
Give measured pIC50 for each item. Keep answers brief.

Determine from records and report pIC50 for Cc1cc(NC(=O)c2c(O)nc(O)[nH]c2=O)no1
< 3.30

Determine from records and report pIC50 for CNC(=O)c1cccc(Nc2nc(O)nc(O)c2C#N)c1
< 3.30

Determine from records and report pIC50 for Cc1cc(=O)oc2n[nH]c(C)c12
< 3.30

Determine from records and report pIC50 for O=C(O)C1C(C(=O)O)C(C(=O)O)C(C(=O)O)C(C(=O)O)C1C(=O)O (stereo unspecified)
< 3.30

Determine from records and report pIC50 for O=C(CC(=O)Nc1ccccc1)NNc1ccc([N+](=O)[O-])cc1
< 3.30

Determine from records and report pIC50 for O=C(NCCCNC(=O)c1cc2cc(O)c(O)cc2[nH]1)c1cc2ccccc2[nH]1
4.19

Determine from records and report pIC50 for O=C(NCCCCNC(=O)c1cc2cc(O)c(O)cc2[nH]1)c1cc2cc(O)c(O)cc2[nH]1
5.15

Determine from records and report pIC50 for O=C(O)c1nccnc1C(=O)Nc1nc(-c2cccs2)n[nH]1
< 3.30

Determine from records and report pIC50 for Cc1nc(SCc2ccccc2)nc(O)c1CC(=O)O
< 3.30

Determine from records and report pIC50 for O=C(O)/C(O)=C/C(=O)C1(Cc2ccc(Cl)cc2)CCN(Cc2ccccc2)CC1
6.32

Determine from records and report pIC50 for O=C(O)CCc1nn2c(nc1O)nc1ccccc12
< 3.30

---

- test protocol: Cytotoxicity against HEK293T cells assessed as cell viability measured at 24 hrs by MTS assay
- Assay type: cell-based, HEK-293T
- measurement conditions: human
Give measured CC50 at 24 h for each item. Keep answers brief.

Determine from records and report CC50 at 24 h for NC(=O)c1ncn([C@@H]2O[C@H](CO)[C@@H](O)[C@H]2O)n1
> 200 µM

Determine from records and report CC50 at 24 h for O=C(NCCCCNC(=O)c1cc2cc(O)c(O)cc2[nH]1)c1cc2cc(O)c(O)cc2[nH]1
> 200 µM

Determine from records and report CC50 at 24 h for O=C(O)/C(O)=C/C(=O)C1(Cc2ccc(Cl)cc2)CCN(Cc2ccccc2)CC1
> 100 µM

Determine from records and report CC50 at 24 h for O=C(NCCc1ccc(O)c(O)c1)c1cc2cc(O)c(O)cc2[nH]1
110 µM

Determine from records and report CC50 at 24 h for O=C(NCCCNC(=O)c1cc2cc(O)c(O)cc2[nH]1)c1cc2ccccc2[nH]1
> 200 µM

---

- Test system: Influenza A virus
- test protocol: Antiviral activity against Influenza A virus (A/PR/8/1934(H1N1)) infected in MDCK cells assessed as 1-log10 reduction in viral RNA copy number after 24 hrs by quantitative RT-PCR analysis
- Type: functional, organism-based
- measurement conditions: A/Puerto Rico/8/1934(H1N1)
recorded endpoint: EC50 (µM)
Please give a number only; it is taken to be in µM.

Determine from records and report EC50 for O=C(NCCCCNC(=O)c1cc2cc(O)c(O)cc2[nH]1)c1cc2cc(O)c(O)cc2[nH]1
6.3

Determine from records and report EC50 for O=C(O)/C(O)=C/C(=O)C1(Cc2ccc(Cl)cc2)CCN(Cc2ccccc2)CC1
5.4

Determine from records and report EC50 for O=C(NCCc1ccc(O)c(O)c1)c1cc2cc(O)c(O)cc2[nH]1
3.2

Determine from records and report EC50 for O=C(NCCCNC(=O)c1cc2cc(O)c(O)cc2[nH]1)c1cc2ccccc2[nH]1
32
